Quick list: pIC50 per entry.
- experimental-target: p300 HAT domain (residues 1287-1666) (Homo sapiens (Human))
- Sequence (Q09472 1287-1666): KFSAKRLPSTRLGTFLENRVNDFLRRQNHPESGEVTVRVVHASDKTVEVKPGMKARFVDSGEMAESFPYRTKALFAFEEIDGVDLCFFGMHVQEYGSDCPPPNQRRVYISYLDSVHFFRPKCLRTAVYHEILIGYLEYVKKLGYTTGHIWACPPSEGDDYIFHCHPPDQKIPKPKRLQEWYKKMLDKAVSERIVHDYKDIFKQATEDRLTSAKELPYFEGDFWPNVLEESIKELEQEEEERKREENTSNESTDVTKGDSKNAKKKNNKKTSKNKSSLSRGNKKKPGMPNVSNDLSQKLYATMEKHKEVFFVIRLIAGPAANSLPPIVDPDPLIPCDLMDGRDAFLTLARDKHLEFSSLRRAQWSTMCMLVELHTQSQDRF
pIC50: −log10 of the molar value.

Consider the following illustrative entries.
Cn1ccc(-c2ccc(NC(=O)C(NCCc3ccc(C#N)cc3)c3ccccc3)nc2)n1 (single isomer, unassigned) [14 Isomer 1] = < 5.30
COC1CN(c2ccc(NC(=O)C(NCC(C)c3ccc(C#N)cc3)c3ccccc3)nc2)C1 (single isomer, unassigned) [32 Isomer 1] = < 5.70
N#Cc1ccc(CCNC(C(=O)Nc2ccc(N3CCOCC3)cn2)c2ccccc2)cc1 (single isomer, unassigned) [81 Isomer 1] = 6.86
Cc1ccc(-c2ccc(NC(=O)C(NCC(C)c3ccc(C#N)cc3)c3ccccc3)nc2)nn1 (single isomer, unassigned) [15 Isomer 1] = < 5.70

Consider the additional compound presented here.
Annotate the compound Cc1ccc(CCNC(C(=O)Nc2ccc(-c3cnn(C)c3)cn2)c2ccccc2)cn1 (single isomer, unassigned) [141 Isomer 2] with its measured pIC50. < 5.70

The values you see were collected from patent US11274090B2.
